experimental_system: ScBzz1-D2
test_protocol: SPOT peptide array binding signal intensity (averaged, normalized) (arbitrary units (background-subtracted, floor 0; scale differs between SH3 domains)); higher = stronger binding of the SH3 domain to the peptide
parameter: SPOT peptide array binding signal intensity

>  <binder>
PHNPSPFFPPPDFND

>  <reported_value>
10.5

$$$$

(Q) Hello, please tell me recorded SPOT peptide array binding signal intensity for this one: KNPRRQLQIPRQQPS
(A) 8

(Q) Hello, please tell me recorded SPOT peptide array binding signal intensity for this one: KKIRLIFTYPSTVGR
(A) 325

(Q) Hello, please tell me recorded SPOT peptide array binding signal intensity for this one: QHQQRQPKRPKRYSL
(A) 12

(Q) Hello, please tell me recorded SPOT peptide array binding signal intensity for this one: SRQAIPPPVPNRPGG
(A) 6

(Q) Hello, please tell me recorded SPOT peptide array binding signal intensity for this one: TSFKGRPKPPKTLKH
(A) 18

(Q) Hello, please tell me recorded SPOT peptide array binding signal intensity for this one: SKSRLLIELPEGFFT
(A) 125
